These entries and their values trace back to ChEMBL document CHEMBL2202969.

# SYSTEM: C-C chemokine receptor type 1 (Homo sapiens)
# Sequence (P32246 whole entry): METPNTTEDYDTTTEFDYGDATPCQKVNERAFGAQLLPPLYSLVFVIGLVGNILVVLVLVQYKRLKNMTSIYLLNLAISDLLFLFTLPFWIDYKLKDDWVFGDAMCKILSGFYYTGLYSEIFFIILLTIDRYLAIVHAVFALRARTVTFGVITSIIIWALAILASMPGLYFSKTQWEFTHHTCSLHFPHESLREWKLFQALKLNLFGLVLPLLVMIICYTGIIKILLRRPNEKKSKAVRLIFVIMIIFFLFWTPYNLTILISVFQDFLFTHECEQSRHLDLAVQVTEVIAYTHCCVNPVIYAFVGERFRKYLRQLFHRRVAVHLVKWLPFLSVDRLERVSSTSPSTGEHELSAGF
# TEST_METHOD_NOTES: Antagonist activity at CCR1
PROPERTY_MEASURED: pKi
Just the number, please; pKi means minus log10 of the concentration in mol/L.

// lookup pKi | system=C-C chemokine receptor type 1 (Homo sapiens) | key= O=C(Nc1ccccc1OCC(O)CN1CCC(Oc2ccc(Cl)c(Cl)c2)CC1)C1CCC1 (stereo unspecified)
7.80

###

# TEST_METHOD_NOTES: physchem
# CONDITION_CONTEXT: octanol/water
Can you tell me logD for the items I'm about to list?

Reported logD, molecule N#Cc1cccc(OCCCN2CCC(Oc3ccc(Cl)c(Cl)c3)CC2)c1 : ____
> 4.5

Reported logD, molecule CS(=O)(=O)c1ccccc1C(=O)NC[C@@H](O)CN1CCC(Oc2ccc(Cl)c(Cl)c2)CC1 : ____
2.3

Reported logD, molecule N#Cc1cccc(OC[C@@H](O)CN2CCC(Oc3ccc(Cl)c(Cl)c3)CC2)c1 : ____
> 4.5

Reported logD, molecule O=C(NC[C@@H](O)CN1CCC(Oc2ccc(Cl)c(Cl)c2)CC1)c1cc(=O)[nH]c2ccccc12 : ____
3.5

Reported logD, molecule COc1cc(C(=O)NC[C@@H](O)CN2CCC(Oc3ccc(Cl)c(Cl)c3)CC2)ccc1N : ____
3.1

Reported logD, molecule COc1cccc(SC[C@@H](O)CN2CCC(Oc3ccc(Cl)c(Cl)c3)CC2)c1 : ____
> 4.5

Reported logD, molecule N#Cc1cccc(C(=O)NC[C@@H](O)CN2CCC(Oc3ccc(Cl)c(Cl)c3)CC2)c1 : ____
3.5

Reported logD, molecule N#Cc1cccc(OC[C@@H](O)CNC2CCN(Cc3ccc(Cl)c(Cl)c3)CC2)c1 : ____
3.1

Reported logD, molecule O=C(NC[C@@H](O)CN1CCC(Oc2ccc(Cl)c(Cl)c2)CC1)c1n[nH]c(=O)c2ccccc12 : ____
3.7

###

Dear all, this message contains pIC50 results, target or system UniProtKB Q12809.
Just the number, please; pIC50 means minus log10 of the concentration in mol/L.

Reported pIC50, compound CN(C[C@@H](O)CN1CCC(Oc2ccc(Cl)c(Cl)c2)CC1)C(=O)c1c[nH]c(=O)c2ccccc12 : ____
5.70

Reported pIC50, compound COc1cc(C(=O)NC[C@@H](O)CN2CCC(Oc3ccc(Cl)c(Cl)c3)CC2)ccc1N : ____
6.60

Reported pIC50, compound O=C(NC[C@@H](O)CN1CCC(Oc2ccc(Cl)c(Cl)c2)CC1)c1n[nH]c2ccccc12 : ____
6.60

###

# TEST_METHOD_NOTES: in vivo
# CONDITION_CONTEXT: rat
PROPERTY_MEASURED: Vd (L/kg)
Lab book: enter the figure in L/kg, no units written.

Reported Vd, molecule CS(=O)(=O)c1ccccc1C(=O)NCC(O)CNC1CCN(Cc2ccc(Cl)c(Cl)c2)CC1 (configuration not stated) : ____
9

Reported Vd, molecule COc1cc(C(=O)NC[C@@H](O)CN2CCC(Oc3ccc(Cl)c(Cl)c3)CC2)ccc1N : ____
25

###

# TEST_METHOD_NOTES: physchem
# CONDITION_CONTEXT: octanol/water
Please note: logD exactly at 3 is Criterion not met. Only values below 3 get Criterion met.

Quick check: does O=C(NC[C@@H](O)CN1CCC(Oc2ccc(Cl)c(Cl)c2)CC1)c1cnnc2ccccc12 have logD under 3?
Criterion not met

Quick check: does O=C(NC[C@@H](O)CN1CCC(Oc2ccc(Cl)c(Cl)c2)CC1)c1cn2cc(F)ccc2n1 have logD under 3?
Criterion not met

Quick check: does CS(=O)(=O)c1ccccc1C(=O)NCC(O)CNC1CCN(Cc2ccc(Cl)c(Cl)c2)CC1 (centres undefined) have logD under 3?
Criterion met

Quick check: does N#Cc1cccc(OC[C@@H](O)CCN2CCC(Oc3ccc(Cl)c(Cl)c3)CC2)c1 have logD under 3?
Criterion not met

Quick check: does CN(C[C@@H](O)CN1CCC(Oc2ccc(Cl)c(Cl)c2)CC1)C(=O)c1c[nH]c(=O)c2ccccc12 have logD under 3?
Criterion not met

Quick check: does O=C(NC[C@@H](O)CN1CCC(Oc2ccc(Cl)c(Cl)c2)CC1)c1n[nH]c2ccccc12 have logD under 3?
Criterion met

Quick check: does O=C(NC[C@@H](O)CN1CCC(Oc2ccc(Cl)c(Cl)c2)CC1)c1c[nH]c2ccccc12 have logD under 3?
Criterion not met

Quick check: does CS(=O)(=O)c1ccc(C(=O)NC[C@@H](O)CN2CCC(Oc3ccc(Cl)c(Cl)c3)CC2)s1 have logD under 3?
Criterion met

Quick check: does O=C(NC[C@@H](O)CN1CCC(Oc2ccc(Cl)c(Cl)c2)CC1)n1c(=O)[nH]c2ccccc21 have logD under 3?
Criterion not met

###

Can you tell me inhibition for the items I'm about to list?
# SYSTEM: C-C chemokine receptor type 3 (Homo sapiens) (UniProt P51677)
# Sequence (P51677 whole entry): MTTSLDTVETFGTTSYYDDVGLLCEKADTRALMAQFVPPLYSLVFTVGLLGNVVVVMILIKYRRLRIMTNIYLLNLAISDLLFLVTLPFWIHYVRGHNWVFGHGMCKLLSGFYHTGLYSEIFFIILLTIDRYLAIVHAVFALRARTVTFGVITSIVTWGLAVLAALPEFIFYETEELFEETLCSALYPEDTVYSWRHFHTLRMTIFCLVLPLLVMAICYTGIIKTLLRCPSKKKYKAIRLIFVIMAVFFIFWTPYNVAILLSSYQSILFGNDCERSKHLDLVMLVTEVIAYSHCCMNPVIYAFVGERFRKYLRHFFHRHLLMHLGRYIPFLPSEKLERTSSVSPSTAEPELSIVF
# TEST_METHOD_NOTES: Displacement of [3H]-4-(2,4-dichloro-3-methylphenoxy)-l'-[4- (methylsulfonyl)benzoyl]-l,4'-bipiperidine from human recombinant CCR3 expressed in CHOK1 cells at 1 uM after 2 hrs by scintillation counting analysis
# Type: cell-based
# CONDITION_CONTEXT: CHO-K1

Reported inhibition, compound CS(=O)(=O)c1ccc(C(=O)NC[C@@H](O)CN2CCC(Oc3ccc(Cl)c(Cl)c3)CC2)s1 : ____
> 70%

Reported inhibition, compound O=C(NC[C@@H](O)CN1CCC(Oc2ccc(Cl)c(Cl)c2)CC1)n1c(=O)[nH]c2ccccc21 : ____
> 70%

Reported inhibition, compound N#Cc1ccc(OC[C@@H](O)CNC2CCN(Cc3ccc(Cl)c(Cl)c3)CC2)cc1 : ____
> 70%

###

Dear all, this message contains IC50 results, target or system Voltage-gated inwardly rectifying potassium channel KCNH2 (Homo sapiens, UniProt Q12809).
Lab book: enter the figure in µM, no units written.

Reported IC50, molecule O=C(NC[C@@H](O)CN1CCC(Oc2ccc(Cl)c(Cl)c2)CC1)c1c[nH]c2ccccc12 : ____
2

Reported IC50, molecule O=C(NC[C@@H](O)CN1CCC(Oc2ccc(Cl)c(Cl)c2)CC1)c1cnnc2ccccc12 : ____
6.31

Reported IC50, molecule O=C(NC[C@@H](O)CN1CCC(Oc2ccc(Cl)c(Cl)c2)CC1)n1c(=O)[nH]c2ccccc21 : ____
0.501

###

# SYSTEM: Histamine H1 receptor (Homo sapiens, UniProt P35367)
# Sequence (P35367 whole entry): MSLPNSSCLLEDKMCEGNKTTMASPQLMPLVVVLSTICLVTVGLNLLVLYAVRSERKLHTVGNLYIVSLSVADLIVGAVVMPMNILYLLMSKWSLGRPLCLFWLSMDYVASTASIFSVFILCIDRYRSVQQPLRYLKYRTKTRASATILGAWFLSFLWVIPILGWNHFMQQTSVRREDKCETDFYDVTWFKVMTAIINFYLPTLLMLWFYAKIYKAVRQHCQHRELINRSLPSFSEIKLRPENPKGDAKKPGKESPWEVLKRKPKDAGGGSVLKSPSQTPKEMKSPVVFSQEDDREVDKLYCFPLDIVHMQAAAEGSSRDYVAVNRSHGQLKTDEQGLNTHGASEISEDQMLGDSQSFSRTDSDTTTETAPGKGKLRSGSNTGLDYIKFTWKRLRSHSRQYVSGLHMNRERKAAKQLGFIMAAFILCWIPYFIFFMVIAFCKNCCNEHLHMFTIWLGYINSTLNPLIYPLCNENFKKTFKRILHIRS
# TEST_METHOD_NOTES: Displacement of [3H]-pyrilamine from human histamine H1 receptor expressed in recombinant CHOK1 cells after 1 hr
pKi: −log10 of the molar value.
If the reported pKi equals or exceeds 8, assign Satisfied. If not, assign Not satisfied.

Quick check, pKi >= 8? N#Cc1cccc(OC[C@@H](O)CCN2CCC(Oc3ccc(Cl)c(Cl)c3)CC2)c1
Satisfied

Quick check, pKi >= 8? CS(=O)(=O)c1ccccc1C(=O)NCC(O)CNC1CCN(Cc2ccc(Cl)c(Cl)c2)CC1 (stereo not drawn)
Not satisfied

Quick check, pKi >= 8? N#Cc1cccc(OC[C@@H](O)CNC2CCN(Cc3ccc(Cl)c(Cl)c3)CC2)c1
Not satisfied

Quick check, pKi >= 8? CS(=O)(=O)c1ccc(C(=O)NC[C@@H](O)CN2CCC(Oc3ccc(Cl)c(Cl)c3)CC2)s1
Not satisfied

Quick check, pKi >= 8? N#Cc1ccc(OC[C@@H](O)CNC2CCN(Cc3ccc(Cl)c(Cl)c3)CC2)cc1
Not satisfied

Quick check, pKi >= 8? COc1cccc(SC[C@@H](O)CN2CCC(Oc3ccc(Cl)c(Cl)c3)CC2)c1
Not satisfied

Quick check, pKi >= 8? N#Cc1cccc(OC[C@@H](O)CN2CCC(Oc3ccc(Cl)c(Cl)c3)CC2)c1
Satisfied

Quick check, pKi >= 8? O=C(NC[C@@H](O)CN1CCC(Oc2ccc(Cl)c(Cl)c2)CC1)c1c[nH]c2ccccc12
Not satisfied

Quick check, pKi >= 8? CS(=O)(=O)c1ccccc1C(=O)NC[C@@H](O)CN1CCC(Oc2ccc(Cl)c(Cl)c2)CC1
Not satisfied

Quick check, pKi >= 8? N#Cc1cccc(C(=O)NC[C@@H](O)CN2CCC(Oc3ccc(Cl)c(Cl)c3)CC2)c1
Not satisfied

###

Can you tell me pKi for the items I'm about to list?
# SYSTEM: Histamine H1 receptor (Homo sapiens, UniProt P35367)
# TEST_METHOD_NOTES: Displacement of [3H]-pyrilamine from human histamine H1 receptor expressed in recombinant CHOK1 cells after 1 hr
Just the number, please; pKi means minus log10 of the concentration in mol/L.

Reported pKi, compound O=C(NC[C@@H](O)CN1CCC(Oc2ccc(Cl)c(Cl)c2)CC1)c1cn2cc(F)ccc2n1 : ____
7.80

Reported pKi, compound O=C(NC[C@@H](O)CN1CCC(Oc2ccc(Cl)c(Cl)c2)CC1)c1n[nH]c2ccccc12 : ____
8.10

Reported pKi, compound N#Cc1cccc(OCCCN2CCC(Oc3ccc(Cl)c(Cl)c3)CC2)c1 : ____
7.90
